The origin of these recorded values is patent US20210395210A1.

- TARGET SYSTEM: native MDH (Sus scrofa, UniProt P00346)
- Construct: soluble pig heart MDH from Roche, product #10127248001; purchased Roche 10127248001; host or cells: pig heart
- Sequence (P00346 25-338): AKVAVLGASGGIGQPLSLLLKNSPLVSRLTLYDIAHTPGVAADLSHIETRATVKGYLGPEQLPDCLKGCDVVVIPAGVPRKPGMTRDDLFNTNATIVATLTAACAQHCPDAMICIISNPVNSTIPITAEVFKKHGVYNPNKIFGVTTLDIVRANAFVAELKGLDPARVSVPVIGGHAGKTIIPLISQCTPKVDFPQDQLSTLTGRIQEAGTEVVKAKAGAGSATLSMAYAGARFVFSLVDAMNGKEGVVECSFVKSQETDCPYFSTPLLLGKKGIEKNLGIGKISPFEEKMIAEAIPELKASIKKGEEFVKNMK
- EXPERIMENT DESCRIPTION: Counter-screen for inhibition of native MDH enzymatic activity
- Assay type: biochemical, pig
- EXPERIMENTAL PARAMETERS: log of IC50 (μM scale), with standard deviation
Overview of recorded log(IC50) Native MDH Reporter for various molecules
QUANTITY: log(IC50) Native MDH Reporter

* O=C(Nc1ccc(Sc2nc3ccccc3s2)c(Cl)c1)c1cc(Br)cc(Br)c1O | 0.83
* O=C(Nc1ccc(Oc2ccc(Cl)cc2)c(Cl)c1)c1cc(I)cc(I)c1O [Rafoxanide, rafoxanide, reference compound] | 1.40
* O=C(Nc1ccc(Sc2nc3ccccc3s2)cc1)c1cc(Br)cc(Br)c1O | 0.92
* Cc1cc(C(C#N)c2ccc(Cl)cc2)c(Cl)cc1NC(=O)c1cc(I)cc(I)c1O (stereo not shown) [Closantel, closantel, reference compound] | 0.79
